# CONDITION DESCRIPTION: in ethyl acetate, 293.15 K
READOUT KIND: solubility (mole fraction)
One number for each entry.

// sample "N[C@@H](Cc1ccccc1)C(=O)O" , its solubility (mole fraction) was 1.95e-05

###

# CONDITION DESCRIPTION: in n-propanol, 323.15 K
READOUT KIND: solubility (mole fraction)
Give bare numbers.

For record "N[C@@H](Cc1ccccc1)C(=O)O" the listed solubility (mole fraction) is 0.000187

###

# CONDITION DESCRIPTION: in acetone, 298.15 K
READOUT KIND: solubility (mole fraction)
Numbers only.

// field: solubility (mole fraction); key: "N[C@@H](Cc1ccccc1)C(=O)O" ; value = 0.000153

###

# CONDITION DESCRIPTION: in water, 288.15 K
READOUT KIND: solubility (mole fraction)
Give bare numbers.

Value of solubility (mole fraction) reported for the compound "N[C@@H](Cc1ccccc1)C(=O)O" is 0.00289

###

# CONDITION DESCRIPTION: in acetonitrile, 283.15 K
READOUT KIND: solubility (mole fraction)
Give bare numbers.

For record "N[C@@H](Cc1ccccc1)C(=O)O" the listed solubility (mole fraction) is 7.9e-06

###

# CONDITION DESCRIPTION: in acetone, 308.15 K
READOUT KIND: solubility (mole fraction)
Answers are plain numbers.

Sure, the documented solubility (mole fraction) for "N[C@@H](Cc1ccccc1)C(=O)O" is 0.000226

###

# CONDITION DESCRIPTION: in n-propanol, 303.15 K
READOUT KIND: solubility (mole fraction)
Numbers only.

What the record says about "N[C@@H](Cc1ccccc1)C(=O)O" : solubility (mole fraction) is 5.58e-05

###

# CONDITION DESCRIPTION: in acetonitrile, 288.15 K
READOUT KIND: solubility (mole fraction)
Answers are plain numbers.

Notebook: "N[C@@H](Cc1ccccc1)C(=O)O" , solubility (mole fraction) read as 9.3e-06

###

# CONDITION DESCRIPTION: in isobutanol, 293.15 K
READOUT KIND: solubility (mole fraction)

Entry "N[C@@H](Cc1ccccc1)C(=O)O" ; solubility (mole fraction) = 9.15e-05

###

# CONDITION DESCRIPTION: in 1,4-dioxane, 293.15 K
READOUT KIND: solubility (mole fraction)
Answers are plain numbers.

Value of measured solubility (mole fraction) for the entry "N[C@@H](Cc1ccccc1)C(=O)O" : 2.37e-05

###

# CONDITION DESCRIPTION: in acetonitrile, 313.15 K
READOUT KIND: solubility (mole fraction)
Answers are plain numbers.

Query "N[C@@H](Cc1ccccc1)C(=O)O" yields solubility (mole fraction) of 3.67e-05

###

# CONDITION DESCRIPTION: in ethyl acetate, 313.15 K
READOUT KIND: solubility (mole fraction)
One number for each entry.

According to the records, this molecule "N[C@@H](Cc1ccccc1)C(=O)O" displays solubility (mole fraction) of 5.38e-05

###

# CONDITION DESCRIPTION: in acetone, 283.15 K
READOUT KIND: solubility (mole fraction)
Answers are plain numbers.

Given item "N[C@@H](Cc1ccccc1)C(=O)O" , the value recorded as its solubility (mole fraction) is 8.09e-05
